Where these numbers come from: patent US20230071371A1

Target: T1, GPR10 (UniProt P49683 1-370, limits assumed)
T1 sequence (looked up): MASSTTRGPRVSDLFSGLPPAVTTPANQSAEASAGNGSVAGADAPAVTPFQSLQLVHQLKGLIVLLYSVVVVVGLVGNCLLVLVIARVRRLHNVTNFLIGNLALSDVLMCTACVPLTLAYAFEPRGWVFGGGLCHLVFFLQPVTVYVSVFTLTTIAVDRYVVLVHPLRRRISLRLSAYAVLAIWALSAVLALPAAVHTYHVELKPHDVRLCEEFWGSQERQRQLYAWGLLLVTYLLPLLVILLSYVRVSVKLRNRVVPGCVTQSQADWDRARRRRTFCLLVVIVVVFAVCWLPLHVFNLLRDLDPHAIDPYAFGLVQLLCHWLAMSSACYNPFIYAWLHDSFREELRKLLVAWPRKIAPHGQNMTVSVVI
Experiment: cell-based or functional assay
Bridges are numbered along the chain shown (N, C = ends). Where no end group is shown, it is not given here. L1 = not defined here; L3 = not defined here; L4 = not defined here; L5 = not defined here
Provide the recorded GPR10 EC50 for the entries that follow.
Give bare numbers, in nM.

1. SRAHQHSMETRTPDCNPAWYTCRGIRPVGRF-NH2 (linker 15-22 via L4; reading uncertain) [Conjugate 243] : 80
2. CRAHQHSCETRTPDINPAWYTGRGIRPVGRF-NH2 (linker 1-8 via L3; reading uncertain) [Conjugate 233] : 17
3. TPDINPCWYTGRGCRPVGRF-NH2 (linker 7-14 via L1; reading uncertain) [Conjugate 209] : 10

Report GPR10 EC50 for every entry below.
1. SRAHQHSMETRTPDCNPAWYTCRGIRPVGRF-NH2 (linker 15-22 via L1; reading uncertain) [Conjugate 229]
2. SRAHQHSMETRTPDCNPAWYTCRGIRPVGRF-NH2 (linker 15-22 via L5; reading uncertain) [Conjugate 244]
3. SRAHQHSMETRTCDINPAWCTGRGIRPVGRF-NH2 (cysteine pairing not given here) [SEQ ID NO 92]
4. SRAHQCSMETRTCDINPAWYTGRGIRPVGRF-NH2 (linker 6-13 via L1; reading uncertain) [Conjugate 226]
5. SRAHQHSMETRTCDINPAWCTGRGIRPVGRF-NH2 (linker 13-20 via L4; reading uncertain) [Conjugate 240]

# output
[10, 230, 18, 20, 630]

Report GPR10 EC50 for every entry below.
1. SRAHQCSMETRTCDINPAWYTGRGIRPVGRF-NH2 (linker 6-13 via L4; reading uncertain) [Conjugate 237]
2. TPDINPAWCTGRGIRCVGRF-NH2 (linker 9-16 via L1; reading uncertain) [Conjugate 211]

# output
1: 80; 2: 160
